Test: yeast display, Sf9 membrane polyspecificity reagent, FACS + sequencing; frameworks hold sequencing errors
ASSAY_READOUT: polyreactivity (PSR sort gate)

Solved cases (10 shown):
## Input Using the record for QVQLVESRGGLVQAARSLRLSFAASGSIFSSNAMGWYRQAPGKERELVAAITSVGSTTYADSVKGRFTISRDNAKNTVYLQMNSLKPEDTAVYYFAADPVYRYYHGWTYVDYVYWGQGTQVTVSS , report its polyreactivity (PSR sort gate).
## Output low polyreactivity

## Input Using the record for QVQLVESGGGLVQAGGSLRLSCAASGSIFISNAMGWYRQAPGKERELVAAITSSGGSTYYADSVKGRFTISRDNAKNTVYLQMNSLKPEDTAVYYCAARPGRNYYYWGQGTQVTVSS , report its polyreactivity (PSR sort gate).
## Output high polyreactivity

## Input Using the record for QVQLVESGGGLVQAGGSLRLSCAASGIIFTYNTMGWYRQAPGKERELVAAINYSGGSTYYADSVKGRFTISRDNAKNTVYLQMNSLKPEDTAVYYCAAPYRRKARGFQQSFDYWGQVTQVTVSS , report its polyreactivity (PSR sort gate).
## Output high polyreactivity

## Input Using the record for QVQLVESGGGLVQAGGSLRLSCAASGFIFVWYAMGWYRQAPGKERELVAAISWSGGNTYYADSVKGRFTISRDNAKNTVYLQMNSLKPEDTAVYYCNVVYFDGNPEDYDYWGQGTQVTVSS , report its polyreactivity (PSR sort gate).
## Output high polyreactivity

## Input Using the record for QVQLVESGGGLVQAGGSLRLSCAASGLTFIEYAMGWYRQAPGKERELVAAISSGGRTYYADSVKGRFTISRDNAKNTVYLQMNSLKPEDTAVYYCNARGYRRWYNYWGQGTQVTVSS , report its polyreactivity (PSR sort gate).
## Output high polyreactivity

## Input Using the record for QVQLVESGGRLVQAGGSLRLSCAASGRTFSVYAMGWYRQAPGKERELVAGITSGGSTNYADSVKGRFTISRDNAKNTVYLQMNSRKPEDTAVYYCAAEIVYAAFGFDSIGDYWGQGTQVTVSS , report its polyreactivity (PSR sort gate).
## Output low polyreactivity

## Input Using the record for QVQLVESGGGLVQAGGSLRLSCAASGRTGKNAMGWYRQAPVKERELVAAIRYNGGSTYYADSVKGRFTISRDNAKNTVYLQMNSLKPEDTAVYYCAAASRRHNGSAFNYWGQGTLVTVSS , report its polyreactivity (PSR sort gate).
## Output high polyreactivity

## Input Using the record for QVQLVESGGGLVQAGGSLRLSCAASGSTFGGYAMGWYRQAPGKERELVADIDSIGGSTYYADSVKGRFTISRDNAKNTVYLQMNSLKPEDTAVYYCAARRFDTALVLYDYWGQGTQVTVSS , report its polyreactivity (PSR sort gate).
## Output low polyreactivity

## Input Using the record for QVQLVESGGGLVQAGGSLRLSCADSGSIFVYNAMGWYRQAPGKERELVAAITTGGSTNYADSVKGRFTISRDNAKNTVYLQMISLKPEDTAVYYCAVEGYPGRYRDPGDLYYYWGQGTQVTLSS , report its polyreactivity (PSR sort gate).
## Output low polyreactivity

## Input Using the record for QVQLVESGGGLVQAGGSLRLSCAASGSTLGYNVMAWYRQAPGKERELVAAISGEGSTNYADSVKGRFTISRDNAKNTVYLQMNSLKPEDTAVYYCAADSRDDYEYWRQGTQVTVSS , report its polyreactivity (PSR sort gate).
## Output low polyreactivity

From here, focus on the item given below.
## Input Using the record for QVQLVESGGGLVQAGGSLRLTCAASGSTFNAYTMGWYRQAPGKERELVAAISSGAGTYYADSVKGRFTISRDNAKYIVYLPMNSLKPEDTAVYYCAADPVGYYDPSVYWGQGTLVTVSS , report its polyreactivity (PSR sort gate).
## Output low polyreactivity

====

Experiment: yeast display, Sf9 membrane polyspecificity reagent, FACS + sequencing; frameworks hold sequencing errors
ASSAY_READOUT: polyreactivity (PSR sort gate)

Solved cases (4 shown):
## Input Using the record for QVQLVESGGGLVQAGGSLRLSCAASGRTFYDYAMGWYRQAPGKERELVASITGGASTNYADSVKGRFTISRDNAKNTVYLQMNSLKPEDTAVYYCAGRLYRGNVWDILLGGDYWGQGTQVTVSS , report its polyreactivity (PSR sort gate).
## Output low polyreactivity

## Input Using the record for QVQLVESGGSLVKAGGSLRLSCAASGRIFGSNTIGWYRPEPGKERELVAAITSRGGSTYYADSVKGRFTISRDNAKNTVYLQMNSLKPEDTSVYYCAAKTVLFIFGYWGQGTQVSVSS , report its polyreactivity (PSR sort gate).
## Output high polyreactivity

## Input Using the record for QVQLVESGGGLVQAGGSLRLSCAASGSTYFHYAMGWYRQAPGKERELVAAISKSVGTTYYADSVKGRFTISRDNAKNTVYLQMNSLKPEDPAVYYCAADSVITWWAYDYWGQGTQVTVSS , report its polyreactivity (PSR sort gate).
## Output high polyreactivity

## Input Using the record for QVQLVESGGGLVQAGGSLRLSCAASGRIFAYYAMGWYRQAPGKERELVAAINTSGAPTNYADSVKGRFTISRDNAKNTVYLQMISLKPEDTAVYYCAARRARYHVEYYYWGQGTQVTVSS , report its polyreactivity (PSR sort gate).
## Output high polyreactivity

From here, focus on the item given below.
## Input Using the record for QGQLVEAGGGLVQAGGSLRLSCAASGNTFKKYARGWYRQAPGKERELVAAISNGGSTTYADSVKGRFTISLDTAKNTVYLQMNSLKPEDTAVYYCNAGRPYGTQKRYDYWGQGTQVTVSS , report its polyreactivity (PSR sort gate).
## Output low polyreactivity

====

Test: yeast display, Sf9 membrane polyspecificity reagent, FACS + sequencing; frameworks hold sequencing errors
ASSAY_READOUT: polyreactivity (PSR sort gate)

## Input Using the record for QVQLVESGGGLVQAGGSLRLSCAASGRTFSQYAMGWYRQAPGKERELVAAITKNGGRTYYADSVKGRFTISRDNAKNTVYLQMNSLKPEDTAVYYCNARGGRYAGKLDYWGQGTQVTVSS , report its polyreactivity (PSR sort gate).
## Output high polyreactivity

## Input Using the record for QVQLVESGGGLVQAGGSLRLSCAASGRIFITKAMGWYRQAPGKERELVAAIRRRGGNTYYADSVKGRFTISRDNAKNTVYLQMNSLKPEDTAVYYCAVYPRPYKYNYWGQGTQVSVSS , report its polyreactivity (PSR sort gate).
## Output high polyreactivity

====

Assay: yeast display, Sf9 membrane polyspecificity reagent, FACS + sequencing; frameworks hold sequencing errors
ASSAY_READOUT: polyreactivity (PSR sort gate)

Solved cases (4 shown):
## Input Using the record for QVQLVESGGGLVQAGGSLRLSCAASGSTFEYNAMGWYRQAPGKERELVASSTNYADSVKGRFTISRDNAKNTVYLQMNSLIPEDTAVYYCAREQGVNRNHDYWGQGTQVTVSS , report its polyreactivity (PSR sort gate).
## Output low polyreactivity

## Input Using the record for QVQLVESGGGLVQAGGSLRLSCAASGFTLDDNGMGWYRPAPGKECELVESITWSGGSTDYADSVKGRFTISRDTAKNTVYLQMNSLKPEDTAVYSCNVGDPIGGFLSYWGGDYWGQGTQVTVSS , report its polyreactivity (PSR sort gate).
## Output low polyreactivity

## Input Using the record for QVQLVQSRGVLVQAGGSLRLSCAASGSIFKYNAMGWYRQAPGKERELVAAITYSGGSTYYADSVKGRFTISRDNAKNTVYLQMNSLKPEDTAVYYCNAYRRFSAFDYWGQGTQVTVSS , report its polyreactivity (PSR sort gate).
## Output high polyreactivity

## Input Using the record for QVQLVESGGGLVQAGGSLRLSCAASGRIFHGYAMGWYRQAPGKESELVAAISSGGRTNYADSVKGRFTISRDNAKYTVYLQMNSLKPEDTAVYYCAAPVLTSDYTLDSYYWGQGTQVTVSS , report its polyreactivity (PSR sort gate).
## Output high polyreactivity

From here, focus on the item given below.
## Input Using the record for QVQLVESGGGLVQAGGSLRLSCAASGRIILVYAMGWYRQAPGKERELVAAISSGGSTYYADSVKGRLTISRDNAKNTVYLQMNSLKPEDTAVYYCAARTAVGPIRSYWYDYWGQGTQVTVSS , report its polyreactivity (PSR sort gate).
## Output low polyreactivity

====

Assay: yeast display, Sf9 membrane polyspecificity reagent, FACS + sequencing; frameworks hold sequencing errors
ASSAY_READOUT: polyreactivity (PSR sort gate)

Solved cases (5 shown):
## Input Using the record for QVQLVESGAGLVQAGGSLRLSCAASGSTFGFNTMGWYRQAPGKERELVAAISWSTGRTNYADSVKGRFTISRDNAKNTVYLQMNRLKPEDTAVYYCAARALDKYRFGGRYDYWGQGTQVTVSS , report its polyreactivity (PSR sort gate).
## Output low polyreactivity

## Input Using the record for QVQLVESGGGLVQAGGSLRLSCAASGRNFWLNAMGWYRPEPGKERELVATISRGGSTNYADSVKGRFTISRDNAKNTVYLQMNSLKPEDTAVYYCAARPYSYYWNSELDYWGQGTQVTVSS , report its polyreactivity (PSR sort gate).
## Output high polyreactivity

## Input Using the record for QVQLVESGRGLVQAGGSLRLSCAASGSTFPKNAMGWYRQAPGKERELVASISSDGSTYYADSVKGRFTISRDNAKNTVYLQMNSLKPEDTAVYYCAAVLWEPPVHPGYDYWGQVTQVTVSS , report its polyreactivity (PSR sort gate).
## Output low polyreactivity

## Input Using the record for QVQLVESGGGLVQAGGSHRLSCAASGRTFSYNAMGWYRQAPGKERELVASITSSGGGTSYADSVKGRFTISRDNAKNTVYLQMNSLKPEDTAVYYCNRVLPHPDGYGVGARGYWGQGTQVTVSS , report its polyreactivity (PSR sort gate).
## Output high polyreactivity

## Input Using the record for QVQLVESGGGLVQAGGSLRLSCAASGSIFYSYAMGWYRQAPGKERELVASINWSGASTYYADSVKGRFTISRDYAKNTVYLQMNSLKPEDTAVYYCAADWWGYDGRYDYWGQGTQVTVSS , report its polyreactivity (PSR sort gate).
## Output high polyreactivity

New cases:
## Input Using the record for QVQLVESGGGLVQAGGSLRLSCAASGSTFFPNGMGWYRLAPGKERELVAAITQDGGSTYYADSVKGRFTISRDNAKNTVSLQMNSLKPEDTAVYYCAASAGPSYEYGYWGQGTQVTVSS , report its polyreactivity (PSR sort gate).
## Output low polyreactivity

## Input Using the record for QVQLVESGGGLVQEGGSLRLSCAASGRIIEYNTMGLNRPATGKERELVAAITGGTGSTYYADSVKGRFTISRDNAKNTVYLQMNSLIPVDTSVYYCNADGMILYDYWGQGTQVTVSS , report its polyreactivity (PSR sort gate).
## Output low polyreactivity

## Input Using the record for QVQLQESRGGLVQAGGSLRLSCAASGYISLAQTIGWYRQAPGKEREFVASIALGSSTYYTDSVKGSFTISRDNAKTTVYLQMISLQAEDTAVYYCAARVGASYAHDFWGQGTQVTVSS , report its polyreactivity (PSR sort gate).
## Output low polyreactivity

## Input Using the record for QVQLVESGGGLVQAGGSLRLSCAASGRIFDYYAMGWYRQAPGKERELVAAINSGGSTYYADSVKGRFTISRDNAKNTVYLQMNSLKPEDTAVYYCAAKSFAPIVDYWGQGTQVTVSS , report its polyreactivity (PSR sort gate).
## Output high polyreactivity

## Input Using the record for QVQLVESGGGLVQAGGSLRLSCAASGFIFTFYAMGWYRQEPGKEREFVASIDWGDGSTYYADSVKGRFTISRDNAKNTVYLQMNSLKPEDTAVYYCAHDYDGYVWDTEYDYWGQGTQVTVSS , report its polyreactivity (PSR sort gate).
## Output low polyreactivity

## Input Using the record for QVQLVESGGGLVQAGGSLRLSCAASGTFGLYAMGWYRQAPGKERELVAAIRARGGSTYYADSVKGRFTISRDNAKNTLYLQKNSLKPEETAVYYCAAEFWDVALARKQWYDYWGQGTQVTVSS , report its polyreactivity (PSR sort gate).
## Output high polyreactivity
